system: HCC-2998 colon; experiment: NCI-60 one-dose screen, 48 h; conditions: 10 µM unless noted
Compounds without any hit were thinned out: in the full panel of roughly 83,000, 20% have a hit. Active and inactive are the calls of the source. The calls were made as follows: active = growth percent below 10; inactive = the rest.
Select the correct class. Options are active, inactive and nothing else.

Some solved cases for reference:
CN(C)c1ccc(O)c2c1CC1CC3C(N(C)C)C(=O)C(C(N)=O)=C(O)C3(O)C(=O)C1=C2O (centres undefined)	inactive
Cc1ccc(S(N)(=O)=O)cc1Cl	inactive
CCOC(=O)/C(C)=C\c1ccc(OC)c(OC)c1	inactive
ClCC(Cl)[C@@H]1CC2C=CC1C2 (some centres undefined)	inactive
CCCCCCCCCCCCCCCCCC(=O)NCCNC(=O)CCCCCCCCCCCCCCCCC	inactive
C=C(c1ccc(N(C)C)cc1)c1ccc(N(C)C)cc1	active
CS(=O)(=O)c1ccc(/C=C\C(=O)O)cc1	inactive
CC(c1ccccc1)N1C(=O)CSC1=S (centres undefined)	inactive
CCCCCC(=O)OCCC1CCCCC1	inactive
CC(=O)N(C(C)=O)c1ccc(C)cc1	inactive

Short answer needed: outcome of this test for O=C(c1ccccc1O)N1CCCC1 ?
inactive

Could you kindly confirm the outcome this assay logged for CCNC(=O)Oc1ccc[nH]c1=O ?
inactive

Recorded test outcome, item N#CC1(O)CCCCC1
inactive

Each compound tested received a call. Report the one for CC(C)c1ccc(C(=O)OCCCl)cc1 .
inactive

Hi, do you know how CC1=CC(=Nc2ccc(N(C)C)cc2)C=C(C)C1=O came out in this test?
inactive

I'd appreciate the recorded outcome for C=CCC(O)C=C (centres undefined) from this test.
inactive

Can you look up the reported call for OC(CCN1CCCCC1)(c1ccccc1)c1ccccc1 for me?
inactive

Hey, what did the test say about OCCc1ccc(Cl)cc1 ?
inactive

Just curious, what result did COc1ccc(Br)c(C=O)c1 get here?
inactive

Query: recorded result category for CCOC(=O)C(=O)CC(=O)c1ccccc1 in this test
inactive

Which outcome was assigned to Cc1[nH]n(-c2ccccc2)c(=O)c1C=NC(=S)C(N)=S in this test?
inactive

What outcome does the record of this test show for C=CCOc1ccc(Cl)cc1Cl ?
inactive

What did this assay record as the result for CCOC(=O)c1ccc(C(C)(C)C)cc1 ?
inactive

What is the recorded call for this compound in the test? Cc1cccnc1NC1OC(=O)c2ccccc21 (centres undefined)
inactive

For this compound, state the assay outcome: CNc1ccccc1C(N)=O
inactive

Kindly provide the recorded test outcome for the following compound: CC(C)C1CCC(C)C(O)C1 (centres undefined)
inactive

What did the test return for CC1(c2ccccc2)CO1 (centres undefined) ?
inactive

Please let me know the test result on file for c1ccc2c(NCCCN3CCN(CCCNc4c5ccccc5nc5ccccc45)CC3)c3ccccc3nc2c1 .
active

Please indicate how the test categorized NC(=S)N/N=C/c1ccc(OC(=O)COc2ccccc2)cn1 .
inactive

====

tested on: ACHN renal; experiment: NCI-60 one-dose screen, 48 h (100 = growth as untreated, 0 = no growth, -100 = all killed); settings: 10 µM unless noted
This is part of a sample that, as a whole, favours compounds with a hit. Of some 83,000 tested, about 20% had one in any assay.
Measurement Label: growth (%)
Numbers only here, please. The scale is %.

O=C(O)c1cccc(-n2ncc(Cl)c(Cl)c2=O)c1	106
O=C(O)c1ccc(OCc2ccccc2)cc1	94.3
Clc1ccc(/C=C/c2ccccn2)cc1	103
C[C@H](CCC[C@H](C)OS(=O)(=O)c1ccccc1)OS(=O)(=O)c1ccccc1	106

I would be grateful if you could share the reported growth for Cc1cccc(C)c1NC(=S)/N=C\c1c(O)[nH]c(=O)[nH]c1=O .
102

Could you tell me which growth is on file for C[n+]1cc2cc3c(cc2c2ccccc21)OCO3 ?
106

What does the record list as growth for Nc1ncnc(Nc2ccc(C(F)(F)F)cc2)n1 ?
98.2

I'd like to know its growth. The compound in question is N#Cc1ccc(OC(=O)Nc2c(Cl)cc(Cl)cc2Cl)cc1
104

Can you look up the measured growth of CCN(C(C)=O)c1ccc([N+](=O)[O-])cc1 for me?
113

Can you look up the measured growth of C=CC(C)(C)n1cc(C2=C(O)C(=O)C(c3cn(C(C)(C)C=C)c4ccccc34)=C(O)C2=O)c2ccccc21 for me?
94.4

Which growth value is on record for COc1cc(OC)c(NC(=O)C(Sc2nc(C)cc(C)c2C#N)c2ccccc2)cc1Cl (configuration not stated) ?
85.8

Query (compound): Cc1ccc(N)c(S(=O)(=O)O)c1 ; field requested: growth
102

====

Overview of reported growth across a group of compounds:
tested on: NCI/ADR-RES ovarian; assay: NCI-60 one-dose screen, 48 h (100 = growth as untreated, 0 = no growth, -100 = all killed); settings: 10 µM unless noted
About 83,000 compounds went through this panel and 20% of them were active in at least one assay; those are over-represented in the sample as a whole.
The reply should be a number in %, with the unit left off.

CCOC(=O)C(COS(C)(=O)=O)(COS(C)(=O)=O)C(=O)OCC	103
CCN(CC)CCOC(=O)Nc1c(C(C)C)cccc1C(C)C	113
O=C(CCl)Nc1ccccc1SCc1cc(Cl)cc2c1OCOC2	101

Would you kindly share the measured growth for C1=NCCc2ccccc21 ?
106

GET /values?readout=growth&item= CCOC(=O)C(CCC#N)(CCC#N)C(=O)OCC
105

Entry CC(C)=CCC[C@@H](C)[C@H]1CC[C@@]2(C)C3=C(CC[C@]12C)[C@@]1(C)CC[C@H](O)C(C)(C)[C@@H]1CC3 has what growth?
110

====

system: NCI-H322M lung; assay: NCI-60 one-dose screen, 48 h (100 = growth as untreated, 0 = no growth, -100 = all killed); details: 10 µM unless noted
This is part of a sample that, as a whole, favours compounds with a hit. Of some 83,000 tested, about 20% had one in any assay. Calls of active or inactive are those of the source. How the source made its calls: active means growth percent below 10; inactive means the rest.
Measurement Label: growth

C=C(C)COc1ccc(C(C)(C)C)cc1	102% (inactive)

Now let's try a different one.
Fill in the blank: the reported growth of O=C(NCc1ccco1)Nc1cccc2c(NC(=O)NCc3ccco3)cccc12 is ____.
120% [100 µM] (inactive)

====

Collected growth values appear next to each entry.
tested on: OVCAR-3 ovarian; experiment: NCI-60 one-dose screen, 48 h (100 = growth as untreated, 0 = no growth, -100 = all killed); settings: 10 µM unless noted
This is part of a sample that, as a whole, favours compounds with a hit. Of some 83,000 tested, about 20% had one in any assay.
I only need the number, in %, no unit after it.

Consider the reported growth for these compounds:
CCOC(=O)/C(C)=C\c1ccc(OC)c(OC)c1	103
C[C@H](CCC[C@H](C)OS(=O)(=O)c1ccccc1)OS(=O)(=O)c1ccccc1	109
CCNCC(C)(C)O	117

What growth value was documented for this compound, OCCc1ccc(Cl)cc1 ?
105

Any idea what its growth is? The compound is Nc1ccn(C2OC(CO)C(O)C2F)c(=O)n1 (configuration not stated)
80.4

I would be grateful if you could share the reported growth for C=COC(=O)C(C)(C)C .
107

I would be grateful if you could share the reported growth for O=C(c1ccccc1O)N1CCCC1 .
110

// lookup growth for CCOC(=O)c1ccc(Nc2sc(C(=O)c3ccc(Br)cc3)c(N)c2C#N)cc1
-6.38

====

system: PC-3 prostate; assay: NCI-60 one-dose screen, 48 h (100 = growth as untreated, 0 = no growth, -100 = all killed); details: 10 µM unless noted
About 83,000 compounds went through this panel and 20% of them were active in at least one assay; those are over-represented in the sample as a whole. The source made the active and inactive calls. The calls were made as follows: active = growth percent below 10; inactive = the rest.
Catalogue of growth values

The examples below pair each entry with its known result.
ClCC(Cl)C1CCC(Cl)C(Cl)C1 (centres undefined)	102% (inactive)
O=C(O)C1CSC(c2ccccc2)N1 (centres undefined)	92.6% (inactive)
CC1(C)OC2C(CO)OC(n3ccc(=O)[nH]c3=O)C2O1 (centres undefined)	90.2% (inactive)

Which measured growth value corresponds to Oc1ccc2ccccc2c1CN1CCOCC1 ?
99.9% (inactive)

Suppose we examine the molecule CCCCc1ccc2nc(NC(=O)OC)[nH]c2c1 ; what growth value has been reported?
22.5% (inactive)

Would you kindly share the measured growth for CC(C)c1ncc([N+](=O)[O-])n1C ?
102% (inactive)

Suppose we examine the molecule CCOC(C=O)OCC ; what growth value has been reported?
95.1% (inactive)

Could you share which growth value was measured for CCCCCC#CC(=O)O ?
98.2% (inactive)

// query growth value for entry CSc1nc2[nH]ncc2c(=O)[nH]1
107% (inactive)

Quick check: growth of COC1CC(OC(=O)c2ccc([N+](=O)[O-])cc2)C(COC(=O)c2ccc([N+](=O)[O-])cc2)O1 (centres undefined) ?
89.8% (inactive)

What does the record list as growth for COC1OC(COC(C)=O)C(OC(C)=O)C(OC(C)=O)C1OC(C)=O (centres undefined) ?
87.2% (inactive)

What value of measured growth is listed for CCCCCCCCNC(=O)C(C)C ?
94.9% (inactive)

Fill blank: measured growth of the molecule C=CCN1CCCC1=O is ____.
94.6% (inactive)

Recorded growth of NNC(=O)c1ccccc1N , please.
101% (inactive)

From: PubChem BioAssay (NCI)
